Source: PubChem BioAssay (NCI)

Test system: TK-10 renal
Assay: NCI-60 one-dose screen, 48 h
Settings: 10 µM unless noted
About 83,000 compounds went through this panel and 20% of them were active in at least one assay; those are over-represented in the sample as a whole. Calls of active or inactive are those of the source. Rule for the calls: active = growth percent below 10; inactive = the rest.
Assign a class; possible classes are Yes = active, No = inactive

Answer briefly: the call reported for Cc1nn(-c2ccccc2)c(N2CCCCC2)c1/C=N/NC(=O)Cn1c(=O)sc2ccccc21 in this assay.
No

Answer briefly: the call reported for O=C1/C(=C/c2ccccc2[N+](=O)[O-])COc2ccc(O)cc21 in this assay.
No

Answer briefly: the call reported for O=C(CN1C(=O)/C(=C/c2ccco2)SC1=S)NCCc1c[nH]c2ccc(F)cc12 in this assay.
No

Answer briefly: the call reported for C=C1C(=O)O[C@H]2[C@H]1CC/C(CNC(=O)c1cc3ccccc3[nH]1)=C\CC[C@@]1(C)O[C@@H]21 in this assay.
Yes

Answer briefly: the call reported for COc1cccc2c(N=NC(=O)c3ccc(S(N)(=O)=O)cc3)c(O)[nH]c12 in this assay.
No

Answer briefly: the call reported for Cn1cc(-c2nn3cc(-c4ccccc4)nc3s2)c2ccccc21 in this assay.
No

Answer briefly: the call reported for C#CCOc1cccc(-c2ncc3cc(NC(=O)CCl)ccc3n2)c1 in this assay.
No

Answer briefly: the call reported for O=C(O)CCCc1cnc2c3sccc3nc(SCc3c(Cl)cccc3Cl)n12 in this assay.
No

Answer briefly: the call reported for C=C1C(=O)O[C@H]2[C@H]1CC/C(COC(=O)NCc1ccc(Cn3c(=O)sn(-c4ccc(OC)cc4)c3=O)cc1)=C\CC[C@@]1(C)O[C@@H]21 in this assay.
Yes
